biological target: human GPCR sphingosine 1-phosphate receptor 1 (Homo sapiens, UniProt P21453); construct: host or cells: CHO; assay: S1PR1 selectivity Ca2+ flux assay (antagonist readout); assay type: cell-based; details: antagonist readout, CHO cells overexpressing human S1PR1 and Gq, S1P at EC80 (6 nM); read-out: S1P1 EC50 (nM), S1P1 antagonist EC50
Sequence (P21453 whole entry): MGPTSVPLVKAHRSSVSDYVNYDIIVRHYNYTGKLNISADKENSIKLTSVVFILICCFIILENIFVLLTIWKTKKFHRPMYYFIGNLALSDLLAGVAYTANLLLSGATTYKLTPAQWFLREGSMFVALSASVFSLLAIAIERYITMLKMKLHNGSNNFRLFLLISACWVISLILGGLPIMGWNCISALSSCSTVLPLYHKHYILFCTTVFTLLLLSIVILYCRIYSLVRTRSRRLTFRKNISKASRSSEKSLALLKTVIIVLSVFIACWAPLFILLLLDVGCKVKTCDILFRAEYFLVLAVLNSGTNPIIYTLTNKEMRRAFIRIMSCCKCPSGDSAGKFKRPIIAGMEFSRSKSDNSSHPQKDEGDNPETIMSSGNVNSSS
Measured property: EC50 (nM)
Numbers only, in nM.

CC(C(=O)O)n1nc(Cn2cc3cc(OCC4CC4)c(Cl)cc3n2)c2cc(C#N)ccc2c1=O (stereo not shown) : 13200

Attention now turns to another entry.
*Q* Report EC50 for C[C@H](C(=O)O)n1nc(Cn2cc3cc(OCC4CC4)c(Cl)cc3n2)c2ccccc2c1=O please.
*A* 8810
